molecular target: PI3K-alpha (Homo sapiens, UniProt P42336); test: PI3K-alpha fluorescence polarization assay; assay type: biochemical; conditions: read-out: PI3Kα Avg. IC50
Sequence (P42336 whole entry, species assumed): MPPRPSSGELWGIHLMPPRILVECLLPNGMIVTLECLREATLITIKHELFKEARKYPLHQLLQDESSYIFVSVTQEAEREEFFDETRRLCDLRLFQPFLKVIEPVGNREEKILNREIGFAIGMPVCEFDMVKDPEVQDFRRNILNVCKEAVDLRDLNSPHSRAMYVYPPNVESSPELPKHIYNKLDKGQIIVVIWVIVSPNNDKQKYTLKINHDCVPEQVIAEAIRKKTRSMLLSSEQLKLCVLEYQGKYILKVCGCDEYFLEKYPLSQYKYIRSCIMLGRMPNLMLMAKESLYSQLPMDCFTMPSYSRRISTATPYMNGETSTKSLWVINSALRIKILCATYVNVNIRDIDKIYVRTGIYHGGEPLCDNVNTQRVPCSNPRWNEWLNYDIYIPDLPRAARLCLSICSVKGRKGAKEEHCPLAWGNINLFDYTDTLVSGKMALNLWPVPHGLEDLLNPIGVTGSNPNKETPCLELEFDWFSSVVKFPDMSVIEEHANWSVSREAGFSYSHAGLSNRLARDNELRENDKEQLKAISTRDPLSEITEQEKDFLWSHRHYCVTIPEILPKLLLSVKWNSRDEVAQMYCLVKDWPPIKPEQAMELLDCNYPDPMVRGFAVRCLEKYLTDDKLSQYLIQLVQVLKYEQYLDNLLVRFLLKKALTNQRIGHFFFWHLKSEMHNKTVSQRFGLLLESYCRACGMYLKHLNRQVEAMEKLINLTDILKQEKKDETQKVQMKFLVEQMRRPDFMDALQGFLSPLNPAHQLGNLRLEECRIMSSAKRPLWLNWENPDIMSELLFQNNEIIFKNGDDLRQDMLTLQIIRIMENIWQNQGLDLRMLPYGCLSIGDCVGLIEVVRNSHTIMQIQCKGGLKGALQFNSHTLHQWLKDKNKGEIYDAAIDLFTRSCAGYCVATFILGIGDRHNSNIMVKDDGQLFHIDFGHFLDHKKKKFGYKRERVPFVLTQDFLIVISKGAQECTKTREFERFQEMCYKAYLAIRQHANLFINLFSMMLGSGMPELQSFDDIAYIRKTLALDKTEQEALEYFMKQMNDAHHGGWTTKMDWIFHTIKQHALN
Sequence (P27986 whole entry partner, species assumed): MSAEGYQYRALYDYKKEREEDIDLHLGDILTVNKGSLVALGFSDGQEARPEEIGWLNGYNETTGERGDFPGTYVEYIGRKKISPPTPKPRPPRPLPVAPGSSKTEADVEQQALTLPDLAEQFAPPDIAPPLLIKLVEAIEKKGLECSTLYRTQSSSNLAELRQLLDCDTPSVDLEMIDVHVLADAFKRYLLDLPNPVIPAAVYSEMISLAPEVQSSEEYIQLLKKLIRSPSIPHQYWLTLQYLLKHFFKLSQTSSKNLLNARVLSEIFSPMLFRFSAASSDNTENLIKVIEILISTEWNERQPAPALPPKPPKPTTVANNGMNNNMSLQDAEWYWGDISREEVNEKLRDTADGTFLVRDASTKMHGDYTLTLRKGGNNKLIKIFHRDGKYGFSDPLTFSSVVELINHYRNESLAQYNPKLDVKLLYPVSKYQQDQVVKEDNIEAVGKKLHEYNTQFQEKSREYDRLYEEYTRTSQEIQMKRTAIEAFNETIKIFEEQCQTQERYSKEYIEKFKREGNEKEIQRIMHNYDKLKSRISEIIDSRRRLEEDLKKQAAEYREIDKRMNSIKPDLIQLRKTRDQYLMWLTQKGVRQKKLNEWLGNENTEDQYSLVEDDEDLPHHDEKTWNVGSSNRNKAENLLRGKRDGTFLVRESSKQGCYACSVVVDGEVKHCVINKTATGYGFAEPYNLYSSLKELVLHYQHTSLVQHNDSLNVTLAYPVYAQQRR
Assay metric: IC50 (nM)

Field: example entries. Status: answers known.
>  <Smiles str>
CNCCNC(=O)Nc1ccc2c(c1)C(=O)/C(=C/c1c(C3CCCCC3)n(CCN3CCN(C)CC3)c3ccc(OC)cc13)O2

>  <IC50, nM>
1.1

$$$$
>  <Smiles str>
COc1ccc2c(c1)c(/C=C1\Oc3cc(O)c(F)cc3C1=O)c(C)n2CCCN(C)C

>  <IC50, nM>
116

$$$$
>  <Smiles str>
COc1ccc2c(c1)c(/C=C1\Oc3cc(N)ccc3C1=O)cn2CCCN(C)C

>  <IC50, nM>
1380

$$$$
>  <Smiles str>
Cn1cc(/C=C2\Sc3ccccc3C2=O)c2ccccc21

>  <IC50, nM>
3100

$$$$
>  <Smiles str>
CNC(=O)Nc1ccc2c(c1)C(=O)/C(=C/c1c(C)n(CCCN3CCN(C)CC3)c3ccc(OC)cc13)O2

>  <IC50, nM>
3.5

$$$$
>  <Smiles str>
CNC(=O)Nc1ccc2c(c1)C(=O)/C(=C/c1c(-c3nc(C4CC4)no3)[nH]c3ccc(OC)cc13)O2

>  <IC50, nM>
5.5

$$$$
>  <Smiles str>
COc1ccc2c(c1)c(/C=C1\Oc3cc(NS(C)(=O)=O)ccc3C1=O)cn2CCCN(C)C

>  <IC50, nM>
9000

$$$$
>  <Smiles str>
CCn1c(C)c(/C=C2\Oc3ccc(NC(=O)Nc4ccc(C(=O)NCCCN(C)C)cc4)cc3C2=O)c2cc(OC)ccc21

>  <IC50, nM>
0.8

$$$$
>  <Smiles str>
COc1ccc2c(c1)c(/C=C1\Oc3c(ccc(O)c3C)C1=O)c(C)n2CCN1CCN(C)CC1

>  <IC50, nM>
408

$$$$
>  <Smiles str>
COc1ccc2[nH]cc(/C=C3\Oc4ccc(NC(=O)Nc5cccnc5)cc4C3=O)c2c1

>  <IC50, nM>
1660

$$$$

(I) Cc1noc(C)c1-c1[nH]c2ccccc2c1C=C1Oc2cc(O)cc(O)c2C1=O
(II) COCCn1cc(C=C2Oc3cc(O)cc(O)c3C2=O)c2c(C#N)cccc21
Look at I and II . Which one has the lower recorded IC50 number? Refer to your chosen entry by its label in the reply.
II

(A) COc1ccc2[nH]cc(C=C3Oc4cccc(O)c4C3=O)c2c1
(B) COc1ccc2c(c1)c(/C=C1\Oc3ccc(NC(=O)Nc4ccc(NC(=O)CCN(C)C)cc4)cc3C1=O)c(C)n2CCN1CCN(C)CC1
Higher IC50 between A and B ? Refer to your chosen entry by its label in the reply.
A
(A: 516 nM, B: 0.8 nM)

====

target: human TOR (Homo sapiens); construct: FLAG; assay: mTOR enzyme assay (DELFIA, His6-S6K substrate); type: biochemical; settings: read-out: mTOR Kinase Avg. IC50
pIC50: −log10 of the molar value.
Assay metric: pIC50

Field: example entries. Status: answers known.
>  <Compound>
CN(C)CCn1c(-c2ccccc2)c(C=C2Oc3cc(O)cc(O)c3C2=O)c2ccccc21 [Example 148]

>  <System under test>
human TOR (Homo sapiens)

>  <pIC50>
6.30

$$$$
>  <Compound>
COCCn1c(-c2ccccc2)c(C=C2Oc3cc(O)cc(O)c3C2=O)c2ccccc21 [Example 151]

>  <System under test>
human TOR (Homo sapiens)

>  <pIC50>
6.15

$$$$
>  <Compound>
O=C(Nc1ccc2[nH]cc(C=C3Oc4cc(O)cc(O)c4C3=O)c2c1)c1ccco1 [Example 183]

>  <System under test>
human TOR (Homo sapiens)

>  <pIC50>
5.21

$$$$
>  <Compound>
COc1cc(F)c2[nH]c(-c3c(C)nn(C)c3C)c(/C=C3\Oc4ccc(NC(=O)NCCN(C)C)cc4C3=O)c2c1 [Compound 716]

>  <System under test>
human TOR (Homo sapiens)

>  <pIC50>
7.64

$$$$

(P) COc1ccc2c(c1)c(/C=C1\Oc3cc(O)cc(O)c3C1=O)c(C(=O)N(C)C)n2CCO [Example 348]
(Q) CN(C)CCCn1c(-c2ccccc2)c(C=C2Oc3cc(O)cc(O)c3C2=O)c2ccccc21 [Example 156]
(R) COc1ccc2[nH]c(-c3c(C)nn(C)c3C)c(/C=C3\Oc4ccc(NC(=O)Nc5ccc(NC(=O)CCN(C)C)cc5)cc4C3=O)c2c1 [Compound 691]
rank_up(items): orders items by reported pIC50 in ascending numerical order. Returns: the labels arranged in the requested order.
Q, P, R

(A) COc1ccc2c(c1)c(/C=C1\Oc3cc(O)cc(O)c3C1=O)c(C1CC1)n2CCN1CCC(O)CC1 [Example 315]
(B) COc1ccc2[nH]c(-c3ccccc3)c(/C=C3\Oc4cccc(O)c4C3=O)c2c1 [Example 304]
(C) CCn1c(-c2ccccc2)c(C=C2Oc3cc(O)cc(O)c3C2=O)c2ccccc21 [Example 213]
Please list the entries, largest pIC50 first. Returns: the labels arranged in the requested order.
A, B, C
(A: 8.38, B: 7.21, C: 6.77)

(A) CCn1c(C)c(/C=C2\Oc3ccc(NC(=O)Nc4ccc(CN(C)C)cc4)cc3C2=O)c2cc(OC)ccc21 [Compound 719]
(B) CCOC(=O)c1ccc(-c2cccc3c2c(/C=C2\Oc4cc(O)cc(O)c4C2=O)cn3C)cc1 [Example 382]
(C) O=C1C(=Cc2c[nH]c3ccc(I)cc23)Oc2cc(O)cc(O)c21 [Example 177]
rank_up(items): orders items by reported pIC50 in ascending numerical order. Returns: the labels arranged in the requested order.
C, B, A

(a) Cc1noc(C)c1-c1[nH]c2ccccc2c1C=C1Oc2cc(O)cc(O)c2C1=O [Example 204]
(b) CCn1c(C)c(/C=C2\Oc3ccc(NC(=O)Nc4ccc(C(=O)N(C)CCN(C)C)cc4)cc3C2=O)c2cc(OC)ccc21 [Compound 639]
(c) COc1cc(F)c2[nH]c(-c3c(C)nn(C)c3C)c(/C=C3\Oc4ccc(NC(=O)Nc5ccc(C(=O)N6CCN(C)C(C)C6)cc5)cc4C3=O)c2c1 (stereo not drawn) [Compound 730]
(d) CNC(=O)Nc1ccc2c(c1)C(=O)/C(=C/c1c(-c3cccc(CN(C)C)c3)[nH]c3ccc(OC)cc13)O2 [Compound 629]
(e) Cn1cc(C=C2Oc3cc(O)cc(O)c3C2=O)c2c(Cl)cccc21 [Example 252]
rank_up(items): orders items by reported pIC50 in ascending numerical order. Returns: the labels arranged in the requested order.
e, a, d, b, c
(e: 5.82, a: 6.72, d: 7.30, b: 7.92, c: 8.52)

(1) COc1ccc2c(c1)c(/C=C1\Oc3cc(O)cc(O)c3C1=O)c(C)n2CCN1CCC(O)CC1 [Example 320]
(2) O=C1C(=Cc2c(-c3ccc(F)c(Cl)c3)[nH]c3ccccc23)Oc2cc(O)cc(O)c21 [Example 212]
(3) O=C1C(=Cc2c(-c3cccnc3)[nH]c3ccccc23)Oc2cc(O)cc(O)c21 [Example 202]
(4) CNC(=O)Nc1ccc2c(c1)C(=O)/C(=C/c1c(-c3c(C)nn(CCOC)c3C)[nH]c3ccc(OC)cc13)O2 [Compound 709]
rank_up(items): orders items by reported pIC50 in ascending numerical order. Returns: the labels arranged in the requested order.
2, 3, 4, 1

(1) COc1ccc2[nH]c(-c3c(C)nn(C)c3C)c(/C=C3\Oc4ccc(NC(=O)Nc5ccc(C(=O)N(C)CCN6CCCC6)cc5)cc4C3=O)c2c1 [Compound 701]
(2) COc1ccc2c(c1)c(/C=C1\Oc3cc(O)ccc3C1=O)c(C)n2CCN1CCCCCC1 [Example 470]
Look at 1 and 2 . Which one has the lower recorded pIC50 number? Refer to your chosen entry by its label in the reply.
2
(2: 5.64, 1: 9.00)

(I) COc1ccc2[nH]cc(C=C3Oc4cccc(O)c4C3=O)c2c1 [Example 78]
(II) Cn1cc(/C=C2\Oc3cc(O)cc(O)c3C2=O)c2c(-c3ccc(N)cc3)cccc21 [Example 370]
Higher pIC50 between I and II ? Refer to your chosen entry by its label in the reply.
II

====

biological target: PI3K-delta (Homo sapiens); test: PI3K-delta fluorescence polarization assay; type: biochemical; settings: read-out: PI3Kδ Avg. IC50
Sequence (O00329 whole entry, species assumed, one chain of several): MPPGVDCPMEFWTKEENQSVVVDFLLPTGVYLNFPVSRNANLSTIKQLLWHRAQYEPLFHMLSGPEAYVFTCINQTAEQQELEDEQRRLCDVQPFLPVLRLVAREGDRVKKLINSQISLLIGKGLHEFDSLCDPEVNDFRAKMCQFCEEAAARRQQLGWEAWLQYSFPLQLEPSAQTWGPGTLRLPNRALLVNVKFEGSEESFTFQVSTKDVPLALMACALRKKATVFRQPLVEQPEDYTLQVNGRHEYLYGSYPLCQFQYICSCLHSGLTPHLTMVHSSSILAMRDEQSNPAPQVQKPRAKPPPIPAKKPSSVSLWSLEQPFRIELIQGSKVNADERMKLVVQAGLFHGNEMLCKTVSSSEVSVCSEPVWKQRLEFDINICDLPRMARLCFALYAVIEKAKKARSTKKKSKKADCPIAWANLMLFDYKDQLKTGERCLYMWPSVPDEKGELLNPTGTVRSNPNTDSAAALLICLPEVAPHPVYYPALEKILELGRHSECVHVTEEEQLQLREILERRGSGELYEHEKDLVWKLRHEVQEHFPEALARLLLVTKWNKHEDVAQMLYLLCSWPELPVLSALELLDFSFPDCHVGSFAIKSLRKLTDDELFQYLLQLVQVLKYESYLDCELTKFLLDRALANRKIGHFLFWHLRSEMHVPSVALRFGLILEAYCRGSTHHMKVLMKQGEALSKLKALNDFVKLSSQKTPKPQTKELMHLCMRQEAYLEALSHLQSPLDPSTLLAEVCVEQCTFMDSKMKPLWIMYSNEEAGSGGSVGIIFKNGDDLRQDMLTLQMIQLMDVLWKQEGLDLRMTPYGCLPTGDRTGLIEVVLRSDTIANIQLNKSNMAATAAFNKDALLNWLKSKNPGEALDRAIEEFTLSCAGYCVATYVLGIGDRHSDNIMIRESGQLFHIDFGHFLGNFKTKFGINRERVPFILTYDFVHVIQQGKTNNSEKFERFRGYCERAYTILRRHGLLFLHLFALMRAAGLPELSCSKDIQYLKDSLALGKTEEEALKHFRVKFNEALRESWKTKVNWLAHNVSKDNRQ
pIC50: −log10 of the molar value.
Assay metric: pIC50

Field: example entries. Status: answers known.
>  <Smiles str>
COc1ccc2c(c1)c(/C=C1\Oc3cc(O)ccc3C1=O)c(C)n2CCCN1CCCC1

>  <Assay result>
8.92

$$$$
>  <Smiles str>
COc1ccc2c(c1)c(C=C1Oc3cc(O)cc(O)c3C1=O)c(C)n2CCCN1CCOCC1

>  <Assay result>
8.72

$$$$

(P) COc1ccc2c(c1)c(C=C1Oc3cc(O)cc(O)c3C1=O)c(C)n2CCN(C)C
(Q) COc1ccc2c(c1)c(/C=C1\Oc3cc(O)ccc3C1=O)c(C1CC1)n2CCN1CCN(C)CC1
Look at P and Q . Which one has the lower recorded pIC50 number? Refer to your chosen entry by its label in the reply.
P
(P: 8.19, Q: 8.82)
